Listing: normalized RNA/DNA level with ligand (log10) of selected variants
B1: library; a variant is named by its letters at N, in order (parent)
chain: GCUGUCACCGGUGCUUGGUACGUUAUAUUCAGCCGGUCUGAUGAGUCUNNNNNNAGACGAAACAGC

Variants of: B1
Procedure details: normalized RNA/DNA level with ligand (relative to sTRSVctl = 100) (log10 (% of sTRSVctl)); HEK293T overexpressing SLC46A1; ligand concentration (+) RNA-Seq: 6 mM; higher = less ribozyme self-cleavage, higher mRNA level
Measurement context: with (6R,S)-folinic acid; ligand present: yes
Test readout: normalized RNA/DNA level with ligand (log10)

{"Sequence change": "CCGGGG", "Observed measurement": 2.01}
{"Sequence change": "UAAGGC", "Observed measurement": 2.01}
{"Sequence change": "CCUUGA", "Observed measurement": 2.03}
{"Sequence change": "GGCUAA", "Observed measurement": 2.05}
{"Sequence change": "UAUUGA", "Observed measurement": 1.98}
{"Sequence change": "GAUCAA", "Observed measurement": 2}
{"Sequence change": "UGGGGG", "Observed measurement": 2.01}
{"Sequence change": "UGCGCG", "Observed measurement": 1.99}
{"Sequence change": "UAGGGA", "Observed measurement": 2}
{"Sequence change": "GAGGCC", "Observed measurement": 2.04}
{"Sequence change": "AUUAUG", "Observed measurement": 2.02}
{"Sequence change": "CAGAUU", "Observed measurement": 2}
{"Sequence change": "CGGAAU", "Observed measurement": 2.02}
{"Sequence change": "UGGAUG", "Observed measurement": 1.96}
{"Sequence change": "UUAUGU", "Observed measurement": 1.99}
{"Sequence change": "GAUCAC", "Observed measurement": 2.03}
{"Sequence change": "UUCGUG", "Observed measurement": 1.99}
{"Sequence change": "ACUUCU", "Observed measurement": 1.99}
{"Sequence change": "CGGGAG", "Observed measurement": 2}
{"Sequence change": "UAGCCG", "Observed measurement": 1.99}
{"Sequence change": "CACAUG", "Observed measurement": 2.02}
{"Sequence change": "GGCAGC", "Observed measurement": 1.98}
{"Sequence change": "AAAAUG", "Observed measurement": 2.02}
{"Sequence change": "CUAACG", "Observed measurement": 1.99}
{"Sequence change": "AUUAAC", "Observed measurement": 2.03}
{"Sequence change": "GUCCGA", "Observed measurement": 2.01}
{"Sequence change": "CAUGAG", "Observed measurement": 2.01}
{"Sequence change": "GUACUC", "Observed measurement": 2.04}
{"Sequence change": "AGACCG", "Observed measurement": 2.04}
{"Sequence change": "UAUCUU", "Observed measurement": 2.05}
{"Sequence change": "CCGCAG", "Observed measurement": 1.99}
{"Sequence change": "UGCGCU", "Observed measurement": 2.04}
{"Sequence change": "AUUGUU", "Observed measurement": 2}
{"Sequence change": "GACUAG", "Observed measurement": 2}
{"Sequence change": "GCCCAG", "Observed measurement": 2}
{"Sequence change": "UUAGUC", "Observed measurement": 2.02}
{"Sequence change": "CCCGAA", "Observed measurement": 2.02}
{"Sequence change": "UCACCC", "Observed measurement": 2.04}
{"Sequence change": "CCGUUA", "Observed measurement": 1.97}
{"Sequence change": "ACCACA", "Observed measurement": 2.01}
{"Sequence change": "GUACCA", "Observed measurement": 2.04}
